# Assay procedure: cell cytotoxicity on replicon cells (LDH release, ribosomal RNA)
# Measurement parameters: human, replicon cells (Huh-7 background)
Endpoint: CC50 at 72 h

Problem: Requested read-out: CC50 at 72 h. Entry: C/C=C/C[C@@H](C)[C@@H](O)[C@H]1C(=O)N[C@@H](CC)C(=O)N(C)[C@H](SCCN(C)C)C(=O)N(C)[C@@H](CC(C)(C)O)C(=O)N[C@@H](C(C)C)C(=O)N(C)[C@@H](CC(C)C)C(=O)N[C@@H](C)C(=O)N[C@H](C)C(=O)N(C)[C@@H](CC(C)C)C(=O)N(C)[C@@H](CC(C)C)C(=O)N(C)[C@@H](C(C)C)C(=O)N1C [SCY-635]
Result: 14.2 µM
